- study target: lactate dehydrogenase A (LDHA) (Homo sapiens)
- test protocol: NADH fluorometric LDH assay
- Assay type: biochemical
measure name: IC50 (µM)

a. Nc1ncnc2c1ncn2[C@@H]1O[C@H](COP(=O)(O)OP(=O)(O)O)[C@@H](O)[C@H]1O [ADP]
b. Nc1ncnc2c1ncn2[C@@H]1O[C@H](COP(=O)(O)O)[C@@H](O)[C@H]1O [AMP]
Sort a and b by IC50 descending and give the first. Record your answer as the label of the chosen record.
b
(b: 24400 µM, a: 5060 µM)

====

- study target: lactate dehydrogenase A (LDHA) (Homo sapiens, UniProt P00338)
- test protocol: NADH fluorometric LDH assay
- Type: biochemical
pIC50: −log10 of the molar value.
measure name: pIC50

The reported pIC50 value, lactate dehydrogenase A (LDHA) (Homo sapiens, UniProt P00338), for CCCCCCCCCCCC(=O)SCCNC(=O)CCNC(=O)[C@H](O)C(C)(C)COP(=O)(O)OP(=O)(O)OC[C@H]1O[C@@H](n2cnc3c(N)ncnc32)[C@H](O)[C@@H]1OP(=O)(O)O [C12:0-CoA] reads < 4.00

The reported pIC50 value, lactate dehydrogenase A (LDHA) (Homo sapiens, UniProt P00338), for CCCCCCCC/C=C\CCCCCCCC(=O)SCCNC(=O)CCNC(=O)[C@H](O)C(C)(C)COP(=O)(O)OP(=O)(O)OC[C@H]1O[C@@H](n2cnc3c(N)ncnc32)[C@H](O)[C@@H]1OP(=O)(O)O [C18:1-CoA] reads ~6.00

The reported pIC50 value, lactate dehydrogenase A (LDHA) (Homo sapiens, UniProt P00338), for CCCCCCCCCCCCCCCC(=O)SCCNC(=O)CCNC(=O)[C@H](O)C(C)(C)COP(=O)(O)OP(=O)(O)OC[C@H]1O[C@@H](n2cnc3c(N)ncnc32)[C@H](O)[C@@H]1OP(=O)(O)O [C16:0-CoA] reads ~6.00
